target: norovirus GII.17 Saitama strain virus-like particle (VLP) (norovirus GII.17 Saitama strain); assay: BLI (BLItz), biotinylated peptide on SA chip, VLP in solution
Ends that are not written are not given here.
MEASURED_PROPERTY: log10 kon (log10 of the value in M⁻¹ s⁻¹)

| BINDER | log10 kon |
| --- | --- |
| VWWGRRISRF (also: biotinylated via PEG3 (AEEEA)-Trp spacer, attachment site and resin-derived C-terminal Lys or Cys not given here) [norovirus-binding peptide of SEQ ID NO: 302] | 6.36 |
| FVWSRRTGLY (also: biotinylated via PEG3 (AEEEA)-Trp spacer, attachment site and resin-derived C-terminal Lys or Cys not given here) [norovirus-binding peptide of SEQ ID NO: 205] | 5.23 |
| CKARSARGVS (also: biotinylated via PEG3 (AEEEA)-Trp spacer, attachment site and resin-derived C-terminal Lys or Cys not given here) [norovirus-binding peptide of SEQ ID NO: 288] | 5.79 |
| RFLVPVVKVM (also: biotinylated via PEG3 (AEEEA)-Trp spacer, attachment site and resin-derived C-terminal Lys or Cys not given here) [norovirus-binding peptide of SEQ ID NO: 103] | 6.14 |
| RSMSLHVSMT (also: biotinylated via PEG3 (AEEEA)-Trp spacer, attachment site and resin-derived C-terminal Lys or Cys not given here) [norovirus-binding peptide of SEQ ID NO: 283] | 6.00 |
| FVWRRRAGLY (also: biotinylated via PEG3 (AEEEA)-Trp spacer, attachment site and resin-derived C-terminal Lys or Cys not given here) [norovirus-binding peptide of SEQ ID NO: 167] | 6.20 |
